Kindly state TGI for each of the entries shown.
System: OVCAR-8 ovarian
procedureText: NCI tumour cell line growth inhibition, 48 h
Where a SMILES comes first, the peptide text is derived from it. [ ]: non-standard residue; d: D form. ξ: configuration not given here. ξLac(3-iPr) = CC(C)CC(O)C(=O)O; NMeV = CN[CH](C(=O)O)C(C)C; NMeA = CN[CH](C)C(=O)O; βAla = NCCC(=O)O

Worked examples, 8 molecules total:
>>> assayresult("COc1nc2c(c(=O)n1C)N=C(c1ccccc1)[C@H](C(CC(=O)c1ccccc1)c1ccccc1)C(c1ccccc1)N2 (stereo partly specified)")
"> 100 µM"
>>> assayresult("Cc1ccc(OCC2OC(n3cnc4c(Cl)nc(Cl)nc43)CC2Oc2ccc(C)cc2)cc1 (stereo unspecified)")
"5.39 µM"
>>> assayresult("COC(=O)C(Br)C1CCc2ccccc21 (stereo unspecified)")
"> 100 µM"
>>> assayresult("O=C1C2CCN(CC2)C1(CO)CO")
"74.7 µM"
>>> assayresult("O=C(Nc1cccc(Cl)c1)c1cccc(NC2=C(Cl)C(=O)N(Cc3ccccc3)C2=O)c1")
"> 100 µM"
>>> assayresult("COC(=O)c1cc2c3ccccc3[nH]c2c2sccc12")
"> 100 µM"
>>> assayresult("N#Cc1cc(S(=O)(=O)Nc2nnc(-c3ccccc3)c(-c3ccccc3)n2)c(SCc2ccccc2)cc1Cl")
"56.7 µM"
>>> assayresult("O=C(O)[C@H](Cc1ccccc1)NCCN1CCC[C@H]1C(=O)O")
"> 100 µM"

Provide each entry's TGI from the list below.
1. Cc1ccc(C2COc3cc(O)c(O)cc3C2)cc1 (stereo unspecified)
2. CCC(C)C1NC(=O)C2CCCN2C(=O)C(CC(C)C)OC(=O)CCNC(=O)C(C)N(C)C(=O)C(C(C)C)N(C)C1=O (stereo unspecified) (cyclo([ξLac(3-iPr)]PI[NMeV][NMeA][βAla]); configuration not given here)
3. CC(=O)O[C@@]12CO[C@@H]1C[C@@H](O)[C@@]1(C)C(=O)[C@H](O)C3=C(C)[C@@H](OC(=O)[C@H](O)[C@@H](NC(=O)c4ccccc4)c4ccccc4)C[C@@](O)([C@@H](OC(=O)c4ccccc4)C12)C3(C)C (stereo partly specified)

Result:
["44.7 µM", "29.2 µM", "> 100 µM"]

* * *

Test system: SK-MEL-2 melanoma
procedureText: NCI tumour cell line growth inhibition, 48 h
measurementKind: TGI (µM)
Answers are plain numbers, in µM.

Look over these answered cases.
>>> assayresult("CSC(=S)OC1CC(n2cnc3c(NC(=O)c4ccccc4)ncnc32)OC1CO[Si](C)(C)C(C)(C)C (centres undefined)")
53.4
>>> assayresult("O=[N+]([O-])c1cc(C(F)(F)F)ccc1Sc1ccc(C(F)(F)F)cc1[N+](=O)[O-]")
9.96
>>> assayresult("Cc1cc(N2CCOCC2)nc(N(CCCNc2ccnc3cc(Cl)ccc23)Cc2ccco2)n1")
6.79

For each entry beneath this line, provide reported TGI.
1. O=c1cc(N=Nc2ccc(Cl)c(Cl)c2)[nH]c(=O)[nH]1
2. O=C(Nc1cccc(Cl)c1)c1cccc(NC2=C(Cl)C(=O)N(Cc3ccccc3)C2=O)c1
3. Oc1c(Br)cc(/C=C/c2cccc(/C=C/c3cc(Br)c(O)c(Br)c3)n2)cc1Br
4. NS(=O)(=O)NCCNc1nonc1C(=Nc1ccc(F)c(Br)c1)NO
5. O=C1C=CC(=O)c2c(O)c(Br)c(Br)c(O)c21
6. COC(=O)C(COC(=O)/C=C/c1ccc(OC(C)=O)c(OC(C)=O)c1)NC(=O)/C=C/c1ccc(OC(C)=O)c(OC(C)=O)c1 (centres undefined)
7. COc1ccc2c(c1)C(=O)/C(=C/c1ccc([N+](=O)[O-])o1)O2

Result:
[12, 68.6, 20.1, 97, 46.6, 36.3, 3.83]

The origin of these recorded values is PubChem BioAssay (NCI).
